The reported measurements were obtained from patent US20260103465A1.

experiment: Human liver microsomal stability; format: in vitro ADME; details: human liver microsomes; Table 3
assay.endpoint: Microsome Stability (Human) (DMPK_BIIB); Mean; in vitro t1/2 (min)

{"compound": "CCC1(c2cccc(-c3c(F)cncc3OC)c2)C2=C(CC(C)(C)CC2=O)Nc2ncc(F)cc21 (single isomer, unassigned) [Compound 161A]", "unit": "min", "experimental.result": 10}

I. CC(C)(C)Cc1ccnc2c1C(C)(c1ccccc1)C1=C(CC(C)(C)CC1=O)N2 (single isomer, unassigned) [Compound 130B]
II. CCC1(c2ccccc2)C2=C(CC(C)(C)CC2=O)Nc2ncccc21 (single isomer, unassigned) [Compound 102A]
INPUT: Compare I and II by numeric Microsome Stability (Human) (DMPK_BIIB); Mean; in vitro t1/2 and name the larger one. Please indicate the selected item by its label.
OUTPUT: II
(II: 14 min, I: 0.53 min)

====

# Lookup of reported MDCK Permeability (MDR1-MDCK); Mean; Papp(B-A) (10^−6 cm/s) keyed by entry
test system: MDR1-MDCK cell monolayers; test: MDR1/MDCK permeability assay; type: in vitro ADME; details: B to A; Table 3

{"compound": "CCC1(c2ccccc2)C2=C(CC(C)(C)CC2=O)Nc2ncccc21 (single isomer, unassigned) [Compound 102A]", "experimental.result": "19 10^−6 cm/s"}

INPUT: What does the record list as MDCK Permeability (MDR1-MDCK); Mean; Papp(B-A) (10^−6 cm/s) for CC1(C)CC(=O)C2=C(C1)Nc1ncc(F)c(C#N)c1C2(C)c1ccccc1 (single isomer, unassigned) [Compound 121A] ?
OUTPUT: 63 10^−6 cm/s

INPUT: Query (compound): CCC1(c2cccc(-c3c(F)cncc3OC)c2)C2=C(CC(C)(C)CC2=O)Nc2ncccc21 (single isomer, unassigned) [Compound 154A] ; field requested: MDCK Permeability (MDR1-MDCK); Mean; Papp(B-A) (10^−6 cm/s)
OUTPUT: 9.5 10^−6 cm/s

INPUT: // MDCK Permeability (MDR1-MDCK); Mean; Papp(B-A) (10^−6 cm/s) lookup, key: CC(C)(C)Cc1ccnc2c1C(C)(c1ccccc1)C1=C(CC(C)(C)CC1=O)N2 (single isomer, unassigned) [Compound 130A]
OUTPUT: 0.65 10^−6 cm/s

====

system: MDR1; experiment: MDR1/MDCK permeability assay; assay type: in vitro ADME; conditions: dog, MDCK-MDR1, pH 7.4, A to B; Table 4
assay.endpoint: Papp A→B at 120 min, 5 µM (×10⁻⁶ cm/s)
Only the number, expressed in ×10⁻⁶ cm/s, is required.

INPUT: Consider the molecule shown here: CCC1(c2ccccc2)C2=C(CC(C)(C)CC2=O)Nc2ncc(C(F)(F)F)cc21 (single isomer, unassigned) [Compound 133A] What is its recorded Papp A→B at 120 min, 5 µM?
OUTPUT: 13

====

test: Human liver microsomal stability; type: in vitro ADME; settings: human liver microsomes; Table 4
assay.endpoint: Microsome Stability (Human) (DMPK_BIIB); Mean; in vitro t1/2 (min)

{"molecule": "CCC1(c2cccc(-c3ccccn3)c2)C2=C(CC(C)(C)CC2=O)Nc2ncccc21 (single isomer, unassigned) [Compound 1016A]", "experimental.result": 1.5}
{"molecule": "CCC1(c2cccc(-c3ccncc3C)c2)C2=C(CC(C)(C)CC2=O)Nc2ncc(F)cc21 (single isomer, unassigned) [Compound 1031B]", "experimental.result": 19}
{"molecule": "CCC1(c2cccc(-c3cccnc3)c2)C2=C(CC(C)(C)CC2=O)Nc2ncccc21 (single isomer, unassigned) [Compound 1015A]", "experimental.result": 2.8}

P. CCC1(c2cccc(C(C)C)c2)C2=C(CC(C)(C)CC2=O)Nc2ncccc21 (single isomer, unassigned) [Compound 1011B]
Q. CCC1(c2cccc(-c3ccncc3C)c2)C2=C(CC(C)(C)CC2=O)Nc2ncccc21 (single isomer, unassigned) [Compound 1020B]
INPUT: Between the entries labelled P and Q , which has a larger Microsome Stability (Human) (DMPK_BIIB); Mean; in vitro t1/2 value on record? Give the chosen item's label as your response.
OUTPUT: Q

====

molecular target: GSK3a (GST-full length GSK3a) (Homo sapiens, UniProt P49840); construct: GST-full length GSK3a [SignalChem G08-10G]; purchased SignalChem G08-10G; assay: GSK3a TR-FRET kinase inhibition assay; assay type: biochemical; conditions: 1 mM ATP; Table 3; read-out: GSK3a TR-FRET 1 mM ATP Average IC50
Sequence (P49840 whole entry): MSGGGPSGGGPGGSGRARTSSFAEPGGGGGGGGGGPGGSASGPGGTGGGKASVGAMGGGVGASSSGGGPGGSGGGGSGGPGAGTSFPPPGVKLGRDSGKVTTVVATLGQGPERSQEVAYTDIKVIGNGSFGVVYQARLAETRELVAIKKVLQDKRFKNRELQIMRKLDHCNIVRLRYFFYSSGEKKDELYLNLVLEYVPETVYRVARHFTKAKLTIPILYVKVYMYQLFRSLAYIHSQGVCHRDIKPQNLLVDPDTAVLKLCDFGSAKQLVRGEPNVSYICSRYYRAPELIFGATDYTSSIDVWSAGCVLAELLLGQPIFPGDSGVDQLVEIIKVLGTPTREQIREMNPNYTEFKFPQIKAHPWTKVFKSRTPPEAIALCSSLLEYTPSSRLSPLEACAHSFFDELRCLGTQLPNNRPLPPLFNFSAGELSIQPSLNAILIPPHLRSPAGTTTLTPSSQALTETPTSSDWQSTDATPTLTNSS
assay.endpoint: IC50

{"molecule": "CC1(C)CC(=O)C2=C(C1)Nc1ncc(F)cc1C2(C)c1cccc(S(C)(=O)=O)c1 (single isomer, unassigned) [Compound 139A]", "IC50": "≤ 0.1 µM"}
{"molecule": "CC1(C)CC(=O)C2=C(C1)Nc1ncc(F)c(C3CC3)c1C2(C)c1ccccc1 (single isomer, unassigned) [Compound 125A]", "IC50": "0.1 to 1 µM"}
{"molecule": "CC1(C)CC(=O)C2=C(C1)Nc1ncc(F)c(C3CC3)c1C2(C)c1cccc(S(C)(=O)=O)c1 (single isomer, unassigned) [Compound 153A]", "IC50": "≤ 0.1 µM"}
{"molecule": "CC1(C)CC(=O)C2=C(C1)Nc1ncc(C(F)(F)F)cc1C2(C)c1ccccc1 (single isomer, unassigned) [Compound 128B]", "IC50": "1 to 5 µM"}
{"molecule": "CC1(C)CC(=O)C2=C(C1)Nc1ncccc1C2(C)c1cccc(-c2ccncc2C(C)(C)C)c1 (single isomer, unassigned) [Compound 152A]", "IC50": "1 to 5 µM"}

INPUT: Item CC1(C)CC(=O)C2=C(C1)Nc1ncc(C(F)(F)F)c(Cl)c1C2(C)c1ccccc1 (single isomer, unassigned) [Compound 141B] has what recorded IC50?
OUTPUT: 1 to 5 µM

INPUT: Item under review: CC1(C)CC(=O)C2=C(C1)Nc1ncc(C(F)(F)F)cc1C2(C)c1ccccc1 (single isomer, unassigned) [Compound 128A] . Reported IC50?
OUTPUT: 5 to 20 µM

====

Target: GSK3a (GST-full length GSK3a) (Homo sapiens, UniProt P49840)
Construct: GST-full length GSK3a [SignalChem G08-10G]; purchased SignalChem G08-10G
Test: GSK3a TR-FRET kinase inhibition assay
Assay type: biochemical
Conditions: 1 mM ATP; Table 3; read-out: GSK3a TR-FRET 1 mM ATP Average IC50
Method: TR-FRET assay was performed in a white, 384 well, low volume, flat bottom plate (Grenier). After a 30 minute preincubation in assay buffer with the indicated concentration of compound, the kinase activity was initiated by the addition of the substrates. […] After 60 min at room temperature the plate was read on Envision plate reader using Ex: 340 nm, Em: 615 nm and […]. The normalized 665/615 Signal ratio versus log compound concentration was analyzed by XLFIT to yield IC50 values.
Recorded IC50, one value per entry.

Answered cases to consult:
{"compound": "COc1cncc(F)c1-c1cccc(C2(C)C3=C(CC(C)(C)CC3=O)Nc3ncc(C4CC4)cc32)c1 (single isomer, unassigned) [Compound 167A]", "IC50": "0.1 to 1 µM"}
{"compound": "COc1cncc(CC(C)(C)C)c1-c1cccc(C2(C)C3=C(CC(C)(C)CC3=O)Nc3ncccc32)c1 (single isomer, unassigned) [Compound 172A]", "IC50": "0.1 to 1 µM"}
{"compound": "CC(C)c1ccnc2c1C(C)(c1ccccc1)C1=C(CC(C)(C)CC1=O)N2 (single isomer, unassigned) [Compound 120A]", "IC50": "1 to 5 µM"}

INPUT: Quick check: IC50 of CC1(C)CC(=O)C2=C(C1)Nc1ncc(F)c(C#N)c1C2(C)c1cccc(S(C)(=O)=O)c1 (single isomer, unassigned) [Compound 148A] ?
OUTPUT: ≤ 0.1 µM

INPUT: Given CC1(C)CC(=O)C2=C(C1)Nc1ncc(Br)c(F)c1C2(C)c1ccccc1 (single isomer, unassigned) [Compound 140B] , state its recorded IC50.
OUTPUT: 5 to 20 µM

INPUT: # lookup: IC50 of CC1(C)CC(=O)C2=C(C1)Nc1ncccc1C2(C)c1cccc(-c2ccncc2CC(F)(F)F)c1 (single isomer, unassigned) [Compound 163A]
OUTPUT: 0.1 to 1 µM

====

Let's look at some compounds and their measured MDCK Permeability (MDR1-MDCK); Mean; Papp(B-A) (10^−6 cm/s).
system: MDR1-MDCK cell monolayers; assay: MDR1/MDCK permeability assay; type: in vitro ADME; details: B to A; Table 4

INPUT: So what does the record say about MDCK Permeability (MDR1-MDCK); Mean; Papp(B-A) (10^−6 cm/s) for CCC1(c2ccccc2)C2=C(CC3(CCC3)CC2=O)Nc2ncccc21 (single isomer, unassigned) [Compound 110A] ?
OUTPUT: 31 10^−6 cm/s

INPUT: Entry under review: CCC1(c2cccc(-c3cncn3C(C)C)c2)C2=C(CC(C)(C)CC2=O)Nc2ncccc21 (single isomer, unassigned) [Compound 149A] . Reported MDCK Permeability (MDR1-MDCK); Mean; Papp(B-A) (10^−6 cm/s)?
OUTPUT: 41 10^−6 cm/s

INPUT: # query: MDCK Permeability (MDR1-MDCK); Mean; Papp(B-A) (10^−6 cm/s) of entry CCC1(c2cccc(O)c2)C2=C(CC(C)(C)CC2=O)Nc2ncc(F)cc21 (single isomer, unassigned) [Compound 1010A]
OUTPUT: 28 10^−6 cm/s

INPUT: Form field: reported MDCK Permeability (MDR1-MDCK); Mean; Papp(B-A) (10^−6 cm/s) of CCC1(c2ccccc2)C2=C(Nc3ncccc31)C(F)C(C)(C)CC2=O (single isomer, unassigned) [Compound 1006C]
OUTPUT: 31 10^−6 cm/s

INPUT: So what does the record say about MDCK Permeability (MDR1-MDCK); Mean; Papp(B-A) (10^−6 cm/s) for CCC1(c2cccc(-c3ccnn3C)c2)C2=C(CC(C)(C)CC2=O)Nc2ncccc21 (single isomer, unassigned) [Compound 1019A] ?
OUTPUT: 39 10^−6 cm/s

INPUT: Which MDCK Permeability (MDR1-MDCK); Mean; Papp(B-A) (10^−6 cm/s) reading was recorded for the compound CCC1(c2cccc(O)c2)C2=C(CC(C)(C)CC2=O)Nc2ncccc21 (single isomer, unassigned) [Compound 1004B] ?
OUTPUT: 47 10^−6 cm/s

INPUT: Data request, read-out MDCK Permeability (MDR1-MDCK); Mean; Papp(B-A) (10^−6 cm/s), for CCC1(c2ccccc2)C2=C(CC3(CCC3)CC2=O)Nc2ncc(F)cc21 (single isomer, unassigned) [Compound 1008A]
OUTPUT: 26 10^−6 cm/s
